TARGET OR SYSTEM: GST
EXPERIMENTAL DETAILS: SPOT array
CONDITION NOTES: median of control spots 978
QUANTITY KIND: SPOT intensity

Look over these answered cases.
BINDER	QUANTITY KIND	OBSERVED VALUE
EQEEIAPSLPSRNSI	SPOT intensity	2
DGNEEKPLLPTRPNK	SPOT intensity	0
NILKRRPLKLEAPSK	SPOT intensity	0
RRRRRPHRIERPLSN	SPOT intensity	1
KFIPSRPAPKPPSSA	SPOT intensity	0
IKTRSVPKIPSIESV	SPOT intensity	0
HAPPLPPTAPPPPSL	SPOT intensity	0
PLQSKIPMLPSRRTM	SPOT intensity	0

1 = NFFRKKLGIPRKLKR
2 = HRRRRVFSIPSLKSI
3 = RKNRAPPQRPRFNRD
4 = PKRRAPPPVPKKPSS
Task item: List by increasing SPOT intensity. Order the labels as requested and give them as your answer.
Reply: 1, 2, 4, 3
(1: 0, 2: 1, 4: 2, 3: 4)
